Reference source for all entries: patent US11524940B1

Here the recorded pEC50 is given for each entry.
molecular target: 229E Mpro (Human coronavirus 229E (HCoV-229E)); experiment: 229E Mpro activity; format: biochemical; conditions: read-out: 229E Mpro EC50
Sequence (P0C6X1 2966-3267 limits assumed): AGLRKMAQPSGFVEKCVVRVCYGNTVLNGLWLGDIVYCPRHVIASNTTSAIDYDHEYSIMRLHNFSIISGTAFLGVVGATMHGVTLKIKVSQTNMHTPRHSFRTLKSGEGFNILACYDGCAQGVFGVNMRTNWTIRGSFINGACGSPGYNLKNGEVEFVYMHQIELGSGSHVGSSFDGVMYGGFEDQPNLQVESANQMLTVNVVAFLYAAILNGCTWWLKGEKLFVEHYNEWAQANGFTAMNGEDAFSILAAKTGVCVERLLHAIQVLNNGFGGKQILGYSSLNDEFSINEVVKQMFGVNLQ
pEC50: −log10 of the molar value.

Request: Field request: pEC50 | item: N#C[C@H](C[C@@H]1CCCNC1=O)NC(=O)C1CC2(CN1C(=O)c1cc3cccc(Cl)c3[nH]1)CC(F)(F)C2 (single isomer, unassigned) [743 (Isomer 2)]
Result: > 5.70

Request: Field request: pEC50 | item: N#C[C@H](C[C@@H]1CCCNC1=O)NC(=O)[C@H](CC1CC1)NC(=O)c1cc2cc(Cl)ccc2[nH]1 [Compound 633]
Result: > 5.70

Request: Field request: pEC50 | item: COc1ccc2[nH]c(C(=O)N[C@@H](CC3CC3)C(=O)N[C@H](C#N)C[C@@H]3CCCNC3=O)cc2c1 [Compound 619]
Result: > 5.70

Next:
Request: Field request: pEC50 | item: CCCNC(=O)OC(C#N)[C@H](C[C@@H]1CCNC1=O)NC(=O)[C@H](CC(C)C)NC(=O)c1cc2c(OC)cccc2[nH]1 (stereo partly drawn) [Compound 581]
Result: < 4.52

Request: Field request: pEC50 | item: CC1(C)CC(C[C@@H](C#N)NC(=O)C2CC3(CCCCC3)CN2C(=O)c2cc3cccc(Cl)c3[nH]2)C(=O)N1 (single isomer, unassigned) [930 (Isomer 3.2)]
Result: 4.52 to 5.00

Request: Field request: pEC50 | item: COc1cccc2[nH]c(C(=O)N[C@@H](CC(C)C)C(=O)NC(C#N)Cc3n[nH]c4ccccc34)cc12 (mixture of isomers) [Compound 245]
Result: < 4.52
